Target: mouse ADAMTS7 (Mus musculus)
Construct: Full-length mouse Adamts7 1-1857 (Uniprot Q68SA9, WT or E373Q catalytic mutant); expressed in transfected cells; host or cells: Human Coronary Artery Smooth Muscle Cells (HCA-SMC, Lonza), adenovirus 50 MOI
Sequence (Q68SA9 221-1657): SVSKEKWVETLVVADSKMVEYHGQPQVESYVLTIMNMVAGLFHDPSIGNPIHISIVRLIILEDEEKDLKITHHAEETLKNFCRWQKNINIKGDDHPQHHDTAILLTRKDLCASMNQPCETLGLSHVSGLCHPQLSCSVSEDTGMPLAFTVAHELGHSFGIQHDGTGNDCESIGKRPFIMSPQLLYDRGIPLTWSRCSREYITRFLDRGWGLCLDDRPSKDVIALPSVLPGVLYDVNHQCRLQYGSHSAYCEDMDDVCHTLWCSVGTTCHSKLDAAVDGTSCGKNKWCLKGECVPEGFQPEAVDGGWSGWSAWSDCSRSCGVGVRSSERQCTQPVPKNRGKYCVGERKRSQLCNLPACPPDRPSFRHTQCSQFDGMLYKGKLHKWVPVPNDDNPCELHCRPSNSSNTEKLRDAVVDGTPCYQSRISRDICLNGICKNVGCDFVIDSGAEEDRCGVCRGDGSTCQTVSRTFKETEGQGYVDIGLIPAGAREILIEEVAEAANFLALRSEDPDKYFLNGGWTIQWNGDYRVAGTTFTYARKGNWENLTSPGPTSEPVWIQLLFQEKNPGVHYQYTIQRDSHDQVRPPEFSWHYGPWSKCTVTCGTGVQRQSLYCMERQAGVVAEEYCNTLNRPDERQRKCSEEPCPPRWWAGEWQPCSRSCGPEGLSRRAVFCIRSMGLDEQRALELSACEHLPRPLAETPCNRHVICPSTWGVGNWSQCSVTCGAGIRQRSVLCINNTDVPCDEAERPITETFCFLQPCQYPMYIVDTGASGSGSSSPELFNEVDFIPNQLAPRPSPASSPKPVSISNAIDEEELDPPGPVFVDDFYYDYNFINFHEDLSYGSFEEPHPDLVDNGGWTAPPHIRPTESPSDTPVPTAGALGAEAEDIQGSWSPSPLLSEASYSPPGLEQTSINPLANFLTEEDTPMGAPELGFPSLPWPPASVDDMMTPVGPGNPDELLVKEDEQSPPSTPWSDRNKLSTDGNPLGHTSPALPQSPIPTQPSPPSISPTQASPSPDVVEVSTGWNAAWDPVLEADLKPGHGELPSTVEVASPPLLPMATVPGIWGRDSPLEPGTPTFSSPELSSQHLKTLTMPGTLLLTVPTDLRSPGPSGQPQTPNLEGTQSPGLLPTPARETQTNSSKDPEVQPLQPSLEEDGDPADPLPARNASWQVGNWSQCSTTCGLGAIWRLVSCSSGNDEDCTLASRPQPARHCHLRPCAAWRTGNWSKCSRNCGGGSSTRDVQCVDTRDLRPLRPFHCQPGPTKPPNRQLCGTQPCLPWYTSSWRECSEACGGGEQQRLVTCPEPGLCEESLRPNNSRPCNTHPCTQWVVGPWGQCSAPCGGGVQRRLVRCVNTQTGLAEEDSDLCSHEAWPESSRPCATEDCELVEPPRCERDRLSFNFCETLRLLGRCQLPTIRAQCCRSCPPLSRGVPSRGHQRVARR
Test: TMT10 TAILS N-terminomics, SMC1 experiment (Ad-mADAMTS7 WT vs EQ vs Luc, technical replicates, trypsin digest)
Assay type: cell-based
Conditions: TAILS neo-N-terminal peptide abundance; log fold change, Ad-mADAMTS7 WT over Luc
Description: ADAMTS7 Expression, Cell Culture and Preparation of the Secreted Proteins—Full-length mouse Adamts7 1-1857 (Uniprot Q68SA9, WT or E373Q catalytic mutant) with a carboxyl terminal 3xFLAG tag was used to generate custom adenoviruses as previously described. Adeno-CMV-Luciferase (Ad-Luc) from Vector Biolabs was used as a negative control. […] Expression of the Flag tagged ADAMTS7 was confirmed from the media using western blot and detected using the anti-Flag M2-HRP antibody (Sigma, A8592). […]
assay.endpoint: logFC.mWT.over.Lux

input: Param item = ACTB_21 (FAGDDAPR; listed as Homo sapiens) ; retrieve measured logFC.mWT.over.Lux.
output: 1.09

input: Param item = EFEMP1_124 (AVAGPEMQTGR; listed as Homo sapiens) ; retrieve measured logFC.mWT.over.Lux.
output: 3.84

input: Param item = COL1A2_425 (ASGPAGVR; listed as Homo sapiens) ; retrieve measured logFC.mWT.over.Lux.
output: 1.17

input: Param item = HLA−C_52 (VDDTQFVR; listed as Homo sapiens) ; retrieve measured logFC.mWT.over.Lux.
output: 1.14

input: Param item = LGALS3BP_447 (FQAPSDYR; listed as Homo sapiens) ; retrieve measured logFC.mWT.over.Lux.
output: 4.70

input: Param item = HSPG2_3250 (SPLPWQHR; listed as Homo sapiens) ; retrieve measured logFC.mWT.over.Lux.
output: 1.00
